# PROCEDURE_SUMMARY: Quantitative High-Throughput drug screen in 47 multiple myeloma cell lines against the NCATS MIPE library collection: OPM1_PLB cell viability assay (AID 1918989); note: nearly all actives have a fitted effect of over 40% in size
# PROTOCOL_CONDITIONS: CellTiter-Glo, 48 h; series mostly up to 45.8 µM
Inconclusive results are not listed. Active and inactive are the calls of the source. Calls come from the whole dose curve; as a rule, active = well fitted cell-killing curve with a large enough effect; inconclusive = small, poorly fitted or top-dose-only effect, or effect the other way; inactive = no such curve, though single readings can be large or run the other way.
Entry note: the call must match one of y for active, n for inactive

Exercise: So what was the verdict on CC(=O)OC1C(C)OC(Oc2c(-c3ccc(O)cc3)oc3cc(O)cc(O)c3c2=O)C(O)C1OC(C)=O (stereo not given) in this test?
Key: y

Exercise: So what was the verdict on Cc1c(O)cccc1C(=O)N[C@@H](CSc1ccccc1)[C@H](O)CN1C[C@H]2CCCC[C@@H]2C[C@@H]1C(=O)NC(C)(C)C in this test?
Key: y

Exercise: So what was the verdict on COc1cc2nc(-c3ccc(N4CCN(C)CC4)cc3)nc(NCCN3CCOCC3)c2cc1OC in this test?
Key: y

Exercise: So what was the verdict on O=C1Nc2ccc(Cl)cc2C(C#CC2CC2)(C(F)(F)F)O1 (stereo not given) in this test?
Key: y

Exercise: So what was the verdict on CNC(=O)c1ccc2cc(C3(O)CCn4cncc43)ccc2c1 (stereo not given) in this test?
Key: n

====

# PROCEDURE_SUMMARY: Quantitative High-Throughput drug screen in 47 multiple myeloma cell lines against the NCATS MIPE library collection: KHM11_PLB cell viability assay (AID 1918962); note: nearly all actives have a fitted effect of over 35% in size
# PROTOCOL_CONDITIONS: KHM11 myeloma cell viability, CellTiter-Glo ATP luminescence, 48 h; series mostly up to 45.8 µM
Records with an inconclusive call do not appear. Calls of active or inactive are those of the source. Calls follow the shape of the dose curve; as a rule, active = well fitted cell-killing curve with a large enough effect; inconclusive = small, poorly fitted or top-dose-only effect, or effect the other way; inactive = no such curve, though single readings can be large or run the other way.
Entry note: the call must match one of label 1 = active, label 0 = inactive

Exercise: So what was the verdict on CCOC(=O)O[C@]1(C(=O)OCCl)CC[C@@H]2[C@H]3CCC4=CC(=O)C=C[C@]4(C)[C@@H]3[C@@H](O)C[C@@]21C in this test?
Key: label 0

Exercise: So what was the verdict on Clc1ccc(C(c2ccc(Cl)cc2)n2cc[n+](CC(OCc3ccc(Cl)cc3Cl)c3ccc(Cl)cc3Cl)c2)cc1 (centres undefined) in this test?
Key: label 1

Exercise: So what was the verdict on O=C(Nc1ccccc1Br)N[C@@H]1CCN(c2ccc(C(F)(F)F)cn2)C1 in this test?
Key: label 1

Exercise: So what was the verdict on COc1cc2nc(-c3ccc(N4CCN(C)CC4)cc3)nc(NCCN3CCOCC3)c2cc1OC in this test?
Key: label 1

====

# PROCEDURE_SUMMARY: Quantitative High-Throughput drug screen in 47 multiple myeloma cell lines against the NCATS MIPE library collection: OPM1_PLB cell viability assay (AID 1918989); note: nearly all actives have a fitted effect of over 40% in size; note: potency is the fitted concentration of half-maximal effect
# PROTOCOL_CONDITIONS: CellTiter-Glo, 48 h; series mostly up to 45.8 µM
# Description: PI: Beverly A. Mock Ph.D. Laboratory of Cancer Biology and Genetics, Center for Cancer Research, National Cancer Institute, National Institute of Health, Bethesda, Maryland […] 5; Detector; 425V; Luminescence; Viewlux PerkinElmer. […] 1. […] Briefly, the corresponding myeloma cell lines were screened in 1,536-well plates with 500 cells, 5-uL per well for inhibition of cell viability (assessed by measuring ATP levels with CellTiterGlo). […]
Results filed as inconclusive are left out. The source made the active and inactive calls. Calls come from the whole dose curve; as a rule, active = well fitted cell-killing curve with a large enough effect; inconclusive = small, poorly fitted or top-dose-only effect, or effect the other way; inactive = no such curve, though single readings can be large or run the other way.
ATTRIBUTE_MEASURED: Potency

CO[C@@H](C(=O)N1Cc2[nH]nc(NC(=O)c3ccc(N4CCN(C)CC4)cc3)c2C1)c1ccccc1    8.33 µM (active)
CC(C)(Cc1ccc2ccccc2c1)NC[C@@H](O)COc1cccc(Cl)c1C#N    6.62 µM (active)
COc1cc2ncnc(-n3nc(-c4ccccn4)nc3N)c2cc1OC    11.8 µM (active)
O=C(OCC#CCSc1nnc(-c2cccc3ccccc23)o1)c1cc2ccccc2s1    inactive
O=c1cc(-c2cccc3c2Sc2ccccc2S3)oc(N2CCOCC2)c1    26.4 µM (active)

Exercise: Consider the compound CC(=NNC(=S)N1CCC1)c1ccccn1 and give its measured Potency.
Key: 0.0037 µM (active)

Exercise: Consider the compound O=C1C[C@@H](c2ccc(O)cc2)Oc2cc(O)cc(O)c21 and give its measured Potency.
Key: inactive
